The origin of these recorded values is paper PMC4837003.

target: HLA-A*0201 heavy chain with β2-microglobulin; assay: differential scanning fluorimetry
READOUT_KIND: apparent Tm by DSF (°C)
Give bare numbers, in °C.

In: Give apparent Tm by DSF for LLYGFVNYV [HUD_(87(2L,9V)-95) peptide]
Out: 65.1

In: Give apparent Tm by DSF for ALGIGILTV [MART-1_(27(2L)-35) peptide]
Out: 59.2

List reported apparent Tm by DSF for each of these binders:
1. YMDGFMSQV [TYR (T5F) peptide]
2. IMDQVPFSV [gp100_(209(2M)-217) peptide]
3. LGYGFVNYI [HUD peptide]

Out:
1. 61.4
2. 62.2
3. 44.8
